Please go through the items and note down their viability at 28.5 h, 10 µM.
assay: in vitro; settings: human, hela cells, % viability
Answers are plain numbers, in %.

Worked cases, answers included:
O=C(c1ccc(F)cc1)[C@H]1CCCN(C(=O)c2cc(C3CC3)n[nH]2)C1    99.6
Cc1ccccc1-c1nnc(NC(=O)c2ccc(N3C(=O)CCC3=O)cc2)s1    85.9
CN1CCC(N2CCN(C(=O)c3ccc(-c4ccc(S(C)(=O)=O)cc4)nc3)CC2)CC1    91.6

Below is a list of molecules. For each, state its recorded viability at 28.5 h, 10 µM.
1. O=C(O)COc1ccc2c(=O)c(Oc3ccc(Cl)cc3)c(C(F)(F)F)oc2c1
2. Cc1ccc(CC(=O)N2CCCCC2c2ncc(-c3cccc(F)c3)[nH]2)cn1 (stereo not drawn)
3. O=C(NC(Cc1ccsc1)c1ccccn1)c1ccc(=O)[nH]c1 (stereo not drawn)
4. c1cc(-c2ccc(OC3CCNCC3)cc2)c2cccnc2c1 [CBK103528T]
5. Cc1ccc(SCc2ccc(C(=O)Nc3ccccc3C(=O)N3CCCC3)cc2)cc1
6. COC(=O)NC(NC(=O)OC)C(=O)c1ccccc1

1: 119; 2: 98; 3: 106; 4: 92.7; 5: 112; 6: 100

###

assay: in vitro; details: human, hela cells, % viability
OBSERVED PROPERTY: viability at 28.5 h, 10 µM (%)
One number for each entry, in %.

Worked cases, answers included:
Cc1ccc2nc(CSc3ncnc4sc(C)cc34)[nH]c2c1 [CBK270047]    97.1
CC1CC(Nc2ccccc2)c2ccccc2N1 (centres unmarked) [CBK057947]    86.6
CCOC(=O)c1cc(-c2cccc(Cl)c2)oc1C [CBK045775]    104

Below is a list of molecules. For each, state its recorded viability at 28.5 h, 10 µM.
1. Cc1nc(C(F)(F)F)ccc1C(=O)Nc1nc(CC(N)=O)cs1 [CBK305776]
2. COCC(=O)N1CCC(Cc2ccc(-c3cccc(C)c3)cc2)(C(=O)NC(C)C)CC1 [CBK285759]

[100, 93.6]

###

Please go through the items and note down their viability at 28.5 h, 10 µM.
experiment: in vitro; details: human, hela cells, % viability
Answers are plain numbers, in %.

Worked cases, answers included:
O=C(c1c(F)cccc1F)N1CCC(O)(c2cccnc2F)CC1    97.7
O=C(O)c1cc(NC/C=C/c2ccccc2)ccc1N1CCOCC1    106
O=C(NCc1cccc(OCC2CCCO2)c1)C1C2CCCCC21 (stereo not shown)    94.3

Below is a list of compounds. For each, state its recorded viability at 28.5 h, 10 µM.
1. CCC(Oc1nc2ccccc2nc1-c1ccccc1NC(C)=O)C(=O)c1ccccc1 (stereo not shown)
2. COc1ccc2c(c1)CC(=O)NC21CCN(Cc2c(F)cccc2F)CC1
3. COc1cccc(CC(=O)Nc2ccc3c(C)cc(C)nc3n2)c1
4. O=C1NC2(CCCCCC2)C(=O)N1Cc1cnn(-c2ccccc2)n1

1: 94.4; 2: 93.8; 3: 74.1; 4: 100

###

Please go through the items and note down their viability at 28.5 h, 10 µM.
assay: in vitro; details: human, hela cells, % viability
Answers are plain numbers, in %.

O=C1CC2(CCN(C(=O)c3ccncc3)CC2)Oc2c(Br)cc(Br)cc21 [CBK156437]    95.7
COc1cc(CCN2CCN(C(C)C)CC2)cc(OC)c1OC [CBK028881C]    89.8
CCN(CC(=O)NCc1ccc(F)cc1)S(=O)(=O)c1ccccc1C#N [CBK305842]    91.1
c1ccc(-c2csc3ncnc(NCc4ccco4)c23)cc1 [CBK017506]    91.1
O=C(O)c1ccc(CN2CCOC[C@H]2c2nc(-c3ccc(F)cc3)c[nH]2)cc1 [CBK289304]    91.2
O=C(NCc1cccs1)c1ccc2c(=O)n3c(nc2c1)CCN(Cc1ccccc1)CC3 [CBK286448]    100
Cc1ccc(NS(=O)(=O)c2cc(C(=O)N3CCN(Cc4ccc5c(c4)OCO5)CC3)ccc2C)cc1 [CBK268521]    102
Cc1cc(N2CCN(C(=O)OC(C)(C)C)CC2)nc(N)n1 [CBK001843]    110

So what does the record say about viability at 28.5 h, 10 µM for Cc1c(C(C)NC(=O)Nc2ccc(F)cc2F)cnn1C (stereo not drawn) [CBK266986] ? 95.1

###

experiment: in vitro; settings: human, hela cells, % viability
OBSERVED PROPERTY: viability at 28.5 h, 10 µM (%)
One number for each entry, in %.

O=C1NCCN(C(=O)c2cccc3cccnc23)C1Cc1ccc(-c2cccs2)cc1 (centres unmarked) [CBK285809]    81.4
O=C(c1cscn1)N1CCC2(CCCNC2)C1 (centres unmarked) [CBK153230C]    97

Below is a list of compounds. For each, state its recorded viability at 28.5 h, 10 µM.
1. CCc1cc(=O)[nH]c(-c2ccc(N3CC(C(N)=O)CCC3C)nc2)n1 (centres unmarked) [CBK306448]
2. CC1CCC(C(N)=O)CN1c1cc(=O)n2ccccc2n1 (centres unmarked) [CBK304835]
3. O=c1c(C(F)(F)F)cccn1Cc1ccccc1 [CBK023620]
4. CC[C@H](Cn1c(=O)oc2ccccc21)NC(=O)Cc1cccs1 [CBK284537]
5. C[C@@H]1CN(C(=O)c2nccc3ccccc23)C[C@H](C)O1 [CBK200233]
6. Fc1cc(Br)ccc1COc1cccnc1Cl [CBK161281]
7. CCN(CC)c1ccc(CN(CCCN(C)C)C(=O)NCc2ccc(F)cc2)cc1 [CBK159410]
8. O=C(NC1CCCCC1)N[C@H]1CO[C@H]2[C@@H]1OC[C@@H]2Nc1nccc(C2CCCC2)n1 [CBK289531]

93.1
104
107
84.7
92.8
68.4
89.9
82.7

Below is a list of compounds. For each, state its recorded viability at 28.5 h, 10 µM.
1. CN(C)S(=O)(=O)N1CCN(c2ccnc3cc(Cl)ccc23)CC1 [CBK269785]
2. OC1CCN(c2ccc(-c3ccccc3)nn2)CC1 [CBK021753]
3. O=C(CN1CCN(C(c2ccccc2)c2ccccc2)CC1)Nc1c2c(nc3ccccc13)CCC2 [CBK278299G]
4. CCN1C(=O)CC2(C1=O)C(=O)N(CCc1cccs1)c1ccccc12 (centres unmarked) [CBK075521]
5. Cc1nn(C)c(N2CCNCC2)c1NC(=O)Cc1cn(C)c2ccccc12 [CBK050254T]
6. O=C(O)c1snnc1-c1ccccc1 [CBK021545]
7. Cc1ccc(-c2nnc(S)n2/N=C\c2ccccc2OCC(=O)O)cc1 [CBK264408]
8. O=C(CN(c1cccc(Cl)c1)S(=O)(=O)c1ccc(Cl)cc1)NCc1ccco1 [CBK265356]

1. 99.2
2. 83.9
3. 92.7
4. 91.4
5. 94.5
6. 90.9
7. 90.7
8. 106

###

Please go through the items and note down their viability at 28.5 h, 10 µM.
test: in vitro; conditions: human, hela cells, % viability
Numbers only, in %.

Worked cases, answers included:
COc1cc(/C=C/C(=O)O)cc(S(=O)(=O)N2CCOCC2)c1OC    117
CCCn1c(SCC(=O)N2CCOCC2)nc2cc(Cl)ccc2c1=O    97.6
CCOC(=O)NC(NCc1ccco1)(C(F)(F)F)C(F)(F)F    102
CCOc1ccc(/N=C2/SC(C(=O)O)CC(=O)N2Cc2ccc3c(c2)OCO3)cc1 (stereo not drawn)    93.3
CC1CCN(CC(=O)Nc2sc3c(c2C(=O)NCc2ccccc2)CCCC3)CC1    107
CCCCOc1ccc(NC(=O)NCCC2=CCCCC2)cc1    92.1

Below is a list of compounds. For each, state its recorded viability at 28.5 h, 10 µM.
1. O=c1[nH]c(=O)n(Cc2cccnc2)c2nc[nH]c12
2. O=C(c1cc(F)c(F)cc1F)N1CCC2(CCCN(CCN3CCOCC3)C2)C1 (stereo not drawn)
3. Cc1ccc(NC(=O)C(=O)NCCCn2ccnc2)cc1Cl

111
82.8
92.2

###

experiment: in vitro; conditions: human, hela cells, % viability
OBSERVED PROPERTY: viability at 28.5 h, 10 µM (%)
Give bare numbers, in %.

c1ccc(CSc2nnc(-c3ccco3)o2)cc1    106
O=C(Nc1ccnn1Cc1ccccc1)C1CC(c2cccc(F)c2)=NO1 (centres unmarked)    112
CC(C)N1CCC(C(=O)NC(=O)NCCc2ccc3c(c2)OCO3)CC1    96.6
CSc1nncc(-c2ccc(Cl)cc2)n1    77.1
Cc1cc(C)n(CC(C)NC(=O)N2CCC(Oc3cccnc3)C2)n1 (centres unmarked)    92.1
Cc1ccc(C(O)CN2CCC(O)(c3ccc(F)cc3)CC2)cc1 (centres unmarked)    94.5

Below is a list of compounds. For each, state its recorded viability at 28.5 h, 10 µM.
1. COc1ccc(OC)c(NC(=O)c2ccc3nccnc3c2)c1
2. O=S(=O)(c1ccc2ccccc2c1)N1CCCCC1CO (centres unmarked)
3. c1ccc2c(c1)/C(=N/OCCN1CCCC1)CC21CCCCC1
4. CCOc1ccccc1C(=O)N1CCCCC1c1ncc(C(=O)Nc2ccccc2)c(C)n1 (centres unmarked)
5. NCCCC(C(=O)O)C(=O)c1ccccc1-c1ccccc1 (centres unmarked)
6. N#Cc1nc(=O)[nH]cc1N

1. 106
2. 100
3. 110
4. 103
5. 99.2
6. 90.8
